target: T1, human plasma-derived Factor IXa (human, UniProt P00740 47-191; P00740 227-461); experiment: ITC, 37 °C, pH 7.4, antibody injected into FIXa
T1 construct: also called FIXa; hFIXa
T1 sequence (P00740 47-191, chain 1 of 2): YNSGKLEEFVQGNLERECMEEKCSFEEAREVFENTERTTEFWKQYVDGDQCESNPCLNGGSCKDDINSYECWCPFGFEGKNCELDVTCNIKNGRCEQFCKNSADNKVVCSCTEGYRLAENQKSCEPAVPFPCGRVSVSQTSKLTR
T1 sequence (P00740 227-461, chain 2 of 2): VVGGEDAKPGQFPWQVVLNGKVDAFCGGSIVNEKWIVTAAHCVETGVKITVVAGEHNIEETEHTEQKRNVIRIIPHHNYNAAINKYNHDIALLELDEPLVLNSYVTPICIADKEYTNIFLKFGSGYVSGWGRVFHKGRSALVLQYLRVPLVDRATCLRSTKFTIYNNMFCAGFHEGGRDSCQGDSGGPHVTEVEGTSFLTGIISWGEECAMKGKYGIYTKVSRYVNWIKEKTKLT

Binder	Kd, nM
mAb01-9933 (antibody, V domains shown, Bivalent IgG) VH: EVQLVESGGGLVQPGRSLKLSCAASGFTFDDYAMHWVRQVPGKGLEWVSGISWKGDIGGYVDSVKGRFTISRDNAKNSLYLQLNSLRAEDTALYYCAKSYGSGSFYNAFDSWGQGTLVTVSS VL: DIQMTQSPSTLSASAGDEVTITCRASQSISSWLAWYQQKPGKAPKLLIYKASKLDRGVPSRFSGSGSGTEFSLTISDLQPDDFATYYCLEYSSYIRTFGQGTKVEIK	1300
